test system: CYP2B6; settings: upcyte Donor 10-03; mean from two experiments
compounds and their reported CYP2B6 Indmax
Express your answer in fold, writing the number without its unit.

# example entries with known answers
> print(dat)
                                   compound  experimental.result
1  COc1ccc2[nH]c([S+]([O-])Cc3ncc(C)c(OC)c3C)nc2c1 (stereo not shown)                  2.0
2  CCc1ccc(CCOc2ccc(CC3SC(=O)NC3=O)cc2)nc1 (stereo not shown)                  2.6

With those in mind, consider the next compound.
Looking for the measured CYP2B6 Indmax of CCC1(c2ccccc2)C(=O)NC(=O)NC1=O , can you help? 3.9

----------
biological target: CYP2C9 (Homo sapiens); assay: CYP2C9 inhibition in upcyte hepatocytes over 24 h; type: in vitro ADME; conditions: probe tolbutamide (5 μmol/L), percentage inhibition, CYP2C9, OH-Tolb, 1 mmol/L ABT, Donor 653-03, 24 h, Lab 2
Sequence (P11712 whole entry): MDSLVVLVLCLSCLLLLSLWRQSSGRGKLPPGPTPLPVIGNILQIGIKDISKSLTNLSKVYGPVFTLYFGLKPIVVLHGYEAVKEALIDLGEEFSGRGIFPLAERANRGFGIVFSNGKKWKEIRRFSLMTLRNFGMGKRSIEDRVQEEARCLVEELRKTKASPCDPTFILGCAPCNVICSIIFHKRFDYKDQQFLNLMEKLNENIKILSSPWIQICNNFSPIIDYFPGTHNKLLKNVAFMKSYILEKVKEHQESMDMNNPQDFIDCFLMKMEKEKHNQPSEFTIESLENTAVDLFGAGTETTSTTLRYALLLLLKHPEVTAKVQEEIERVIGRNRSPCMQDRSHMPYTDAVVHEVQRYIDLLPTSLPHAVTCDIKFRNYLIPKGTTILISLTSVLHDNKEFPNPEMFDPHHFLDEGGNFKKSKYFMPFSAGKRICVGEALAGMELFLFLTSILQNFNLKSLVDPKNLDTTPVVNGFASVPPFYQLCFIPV
reported property: inhibition at 24 h, 1 mmol/L (%)
# value in %; strip the unit string

Sample Nn1nnc2ccccc21 [ABT, 1-aminobenzotriazole] — what was its inhibition at 24 h, 1 mmol/L? 99

----------
tested on: CYP3A4; conditions: upcyte Donor 653-03; mean from two experiments
reported property: CYP3A4 Indmax (fold)
Record the value in fold, omitting the unit from your answer.

> print(dat)
                                   molecule  test.system  experimental.result
1  COc1ccc2[nH]c([S+]([O-])Cc3ncc(C)c(OC)c3C)nc2c1 (centres unmarked) [Omeprazole, omeprazole]       CYP3A4                  1.5
2  CCc1ccc(CCOc2ccc(CC3SC(=O)NC3=O)cc2)nc1 (centres unmarked) [Pioglitazone, pioglitazone]       CYP3A4                  9.2
3  NC(=O)N1c2ccccc2C=Cc2ccccc21 [Carbamazepine, carbamazepine]       CYP3A4                  5.7
4  O=C1NC(=O)C(c2ccccc2)(c2ccccc2)N1 [Phenytoin, phenytoin]       CYP3A4                  6.3
5  CCC1(c2ccccc2)C(=O)NC(=O)NC1=O [Phenobarbital, phenobarbital]       CYP3A4                 11.8

Okay, next one:
Any idea what CYP3A4 Indmax was measured for Cc1c(C)c2c(c(C)c1O)CCC(C)(COc1ccc(CC3SC(=O)NC3=O)cc1)O2 (centres unmarked) [Troglitazone, troglitazone] ? 2.2

----------
test system: CYP3A4; conditions: upcyte Donor 422A-03; relative to positive control rifampicin, equation 2
Lab note: cut-off is 30%. Strictly less in CYP3A4 % Rif is t. Exactly 30% or more is f.

Known results for compounds:
> print(dat)
                                   compound  class.assignment
1  NC(=O)N1c2ccccc2C=Cc2ccccc21 [Carbamazepine, carbamazepine]                 t
2         O=C1NC(=O)C(c2ccccc2)(c2ccccc2)N1                 f
3  CCc1ccc(CCOc2ccc(CC3SC(=O)NC3=O)cc2)nc1 (stereo not shown)                 t

Quick check: does Cc1c(C)c2c(c(C)c1O)CCC(C)(COc1ccc(CC3SC(=O)NC3=O)cc1)O2 (stereo not shown) have CYP3A4 % Rif under 30%? t

Determine whether this compound shows CYP3A4 % Rif lower than 30% (ties excluded): CCC1(c2ccccc2)C(=O)NC(=O)NC1=O f

----------
biological target: CYP3A4 (Homo sapiens, UniProt P08684); assay: in vitro; conditions: upcyte hepatocytes, probe midazolam (5 μmol/L), percentage inhibition, CYP3A4, 1′OH-MID +1′OH-MID-G, 1 mmol/L ABT, Donor 151-03, 0–6 h, Lab 2
Sequence (P08684 whole entry): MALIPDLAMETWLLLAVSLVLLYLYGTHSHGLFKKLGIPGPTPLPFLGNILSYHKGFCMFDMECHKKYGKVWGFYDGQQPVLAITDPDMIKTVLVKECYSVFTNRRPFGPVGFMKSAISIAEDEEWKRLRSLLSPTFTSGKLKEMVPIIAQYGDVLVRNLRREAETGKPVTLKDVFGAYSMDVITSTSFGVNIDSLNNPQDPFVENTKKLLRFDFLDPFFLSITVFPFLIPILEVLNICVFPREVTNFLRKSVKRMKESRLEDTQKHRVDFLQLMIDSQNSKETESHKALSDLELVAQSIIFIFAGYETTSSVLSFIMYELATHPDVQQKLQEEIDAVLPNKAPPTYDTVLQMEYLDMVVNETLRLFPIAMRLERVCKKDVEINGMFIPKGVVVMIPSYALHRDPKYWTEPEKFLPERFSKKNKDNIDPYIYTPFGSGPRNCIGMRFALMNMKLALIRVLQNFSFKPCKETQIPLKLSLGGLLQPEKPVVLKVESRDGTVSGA
reported property: inhibition at 1 mmol/L (%)
Please give a number only; it is taken to be in %.

Look at this compound and give its reported inhibition at 1 mmol/L. Nn1nnc2ccccc21 99

----------
biological target: CYP3A4 (Homo sapiens, UniProt P08684); assay: in vitro; conditions: upcyte hepatocytes, probe midazolam (5 μmol/L), percentage inhibition, CYP3A4, 1′OH-MID +1′OH-MID-G, 1 mmol/L ABT, Donor 653-03, 0–6 h, Lab 2
reported property: inhibition at 1 mmol/L (%)
// units = %; emit number, no label

Tell me reported inhibition at 1 mmol/L for Nn1nnc2ccccc21 , tested with CYP3A4 (Homo sapiens, UniProt P08684). 98

----------
tested on: CYP2B6; settings: upcyte Donor 151-03; relative to positive control phenobarbital, equation 2
reported property: CYP2B6 % PB (%)
The answer is to be given in %; state only the numeric part.

Consider the reported CYP2B6 % PB for these compounds:
chemical structure	CYP2B6 % PB / %
O=C1NC(=O)C(c2ccccc2)(c2ccccc2)N1	89
CCC1(c2ccccc2)C(=O)NC(=O)NC1=O	100

Now for another entry.
Any idea what CYP2B6 % PB was measured for CO[C@H]1/C=C/O[C@@]2(C)Oc3c(C)c(O)c4c(O)c(c(/C=N/N5CCN(C)CC5)c(O)c4c3C2=O)NC(=O)/C(C)=C\C=C\[C@H](C)[C@H](O)[C@@H](C)[C@@H](O)[C@@H](C)[C@H](OC(C)=O)[C@@H]1C ? 14

----------
molecular target: CYP3A4 (Homo sapiens, UniProt P08684); experiment: in vitro; settings: upcyte hepatocytes, probe midazolam (5 μmol/L), percentage inhibition, CYP3A4, 1′OH-MID +1′OH-MID-G, 1 mmol/L ABT, Donor 422A-03, 24 h, Lab 2
reported property: inhibition at 24 h, 1 mmol/L (%)
# number only, unit % dropped from output

Which inhibition at 24 h, 1 mmol/L reading was recorded for the compound Nn1nnc2ccccc21 [ABT, 1-aminobenzotriazole] ? 98

----------
Reported CYP2B6 % PB values for the following compounds.
system: CYP2B6; conditions: upcyte Donor 653-03; relative to positive control phenobarbital, equation 2
Please give a number only; it is taken to be in %.

For orientation, consider the following solved cases.
compound	reported property	units label	experimental result
CO[C@H]1/C=C/O[C@@]2(C)Oc3c(C)c(O)c4c(O)c(c(/C=N/N5CCN(C)CC5)c(O)c4c3C2=O)NC(=O)/C(C)=C\C=C\[C@H](C)[C@H](O)[C@@H](C)[C@@H](O)[C@@H](C)[C@H](OC(C)=O)[C@@H]1C	CYP2B6 % PB	%	29
COc1ccc2[nH]c([S+]([O-])Cc3ncc(C)c(OC)c3C)nc2c1 (stereo not shown)	CYP2B6 % PB	%	56
Cc1c(C)c2c(c(C)c1O)CCC(C)(COc1ccc(CC3SC(=O)NC3=O)cc1)O2 (stereo not shown)	CYP2B6 % PB	%	63

Now consider a different compound.
Item: CCC1(c2ccccc2)C(=O)NC(=O)NC1=O Test system: CYP2B6 Read-out: CYP2B6 % PB Value: ? 100

----------
test system: CYP3A4; conditions: upcyte Donor 151-03; relative to positive control rifampicin, equation 2
Rule: CYP3A4 % Rif under 40% gives not met, otherwise met.

Sample answers from the record:
> print(dat)
                                   molecule  test.system  class.assignment
1  O=C1NC(=O)C(c2ccccc2)(c2ccccc2)N1 [Phenytoin, phenytoin]       CYP3A4               met
2  Cc1c(C)c2c(c(C)c1O)CCC(C)(COc1ccc(CC3SC(=O)NC3=O)cc1)O2 (centres unmarked) [Troglitazone, troglitazone]       CYP3A4           not met
3  CCc1ccc(CCOc2ccc(CC3SC(=O)NC3=O)cc2)nc1 (centres unmarked) [Pioglitazone, pioglitazone]       CYP3A4               met

Decide: is the reported value of CYP3A4 % Rif for NC(=O)N1c2ccccc2C=Cc2ccccc21 [Carbamazepine, carbamazepine] equal to or greater than 40%? met

Given COc1ccc2[nH]c([S+]([O-])Cc3ncc(C)c(OC)c3C)nc2c1 (centres unmarked) [Omeprazole, omeprazole] , state whether its CYP3A4 % Rif is at least 40%. not met

Does CYP3A4 % Rif meet or surpass 40% for CCC1(c2ccccc2)C(=O)NC(=O)NC1=O [Phenobarbital, phenobarbital] ? met

----------
test system: CYP3A4; settings: upcyte Donor 151-03; mean of two experiments
The reader will find reported CYP3A4 RIS values listed item by item below.
Enter the number alone.

// solved cases for CYP3A4 RIS follow
> print(dat)
                                   compound  reported.property  experimental.result
1  CCc1ccc(CCOc2ccc(CC3SC(=O)NC3=O)cc2)nc1 (stereo not shown)         CYP3A4 RIS               0.0040
2         O=C1NC(=O)C(c2ccccc2)(c2ccccc2)N1         CYP3A4 RIS                3.908
3  Cc1c(C)c2c(c(C)c1O)CCC(C)(COc1ccc(CC3SC(=O)NC3=O)cc1)O2 (stereo not shown)         CYP3A4 RIS                0.094
4            CCC1(c2ccccc2)C(=O)NC(=O)NC1=O         CYP3A4 RIS                2.211

Could you now look at the following compound, please?
Recorded CYP3A4 RIS of NC(=O)N1c2ccccc2C=Cc2ccccc21 [Carbamazepine, carbamazepine] , please. 3.071
